experimental_system: T1, first WW domain of human YAP2 (YAP-WW1) (human, UniProt P46937-2 165-209)
T1 construct: also called hYAP-WW1; not shown: GST, N-terminal, cleaved; His tag, N-terminal, cleaved
T1 sequence (P46937 165-209): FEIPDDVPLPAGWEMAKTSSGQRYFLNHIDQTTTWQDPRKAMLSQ
protocol_description: other fluorescence titration; tryptophan fluorescence of the WW domain (20 uM), excitation 298 nm, centre of spectral mass against peptide concentration, one to one model; 20 mM sodium phosphate pH 7.0, 25 °C
experimental_context: both partners purified
pKd: −log10 of the molar value.
property_name: pKd

>>> print(df.to_string())
                                     binder  property_name  experimental_result
0  SDPQIPPPYVEP [HTLV1 Late domain peptide]            pKd                 3.51
